assayed.target: human PDE4D3 (Homo sapiens (Human), UniProt Q08499)
Sequence (Q08499 186-808): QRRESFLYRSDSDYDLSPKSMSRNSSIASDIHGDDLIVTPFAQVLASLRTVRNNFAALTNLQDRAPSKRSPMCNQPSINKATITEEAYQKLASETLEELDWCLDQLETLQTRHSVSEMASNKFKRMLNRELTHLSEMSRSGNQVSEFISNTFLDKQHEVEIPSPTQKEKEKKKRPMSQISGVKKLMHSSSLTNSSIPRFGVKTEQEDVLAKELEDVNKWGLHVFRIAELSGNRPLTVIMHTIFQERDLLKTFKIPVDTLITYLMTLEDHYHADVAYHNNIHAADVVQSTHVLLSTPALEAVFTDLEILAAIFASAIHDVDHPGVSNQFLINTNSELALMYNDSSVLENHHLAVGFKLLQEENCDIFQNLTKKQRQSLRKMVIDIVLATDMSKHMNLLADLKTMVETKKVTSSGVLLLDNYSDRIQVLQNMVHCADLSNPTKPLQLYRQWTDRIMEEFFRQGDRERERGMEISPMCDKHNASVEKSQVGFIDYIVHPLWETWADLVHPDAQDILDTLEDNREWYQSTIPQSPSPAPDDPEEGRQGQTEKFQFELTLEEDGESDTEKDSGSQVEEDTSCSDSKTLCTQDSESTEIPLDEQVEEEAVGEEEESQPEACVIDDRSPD
procedure.summary: PDE4D3 Scintillation Proximity Assay (SPA), inhibition of enzyme activity
Assay type: biochemical
measurement.conditions: Table 9, geometric mean of 2-9 determinations unless otherwise indicated, read-out: Human PDE4D FL
pIC50: −log10 of the molar value.
assay.endpoint: pIC50

(I) Cc1cc(C#N)ccc1-c1c2n(c3cccnc13)CCN(C1CC1)C2=O [Example 50]
(II) O=C1c2c(-c3ccc(Cl)c(F)c3)c3ncccc3n2CCN1C1CC1 [Example 32]
(III) O=C1NCCn2c1c(-c1ccc(Cl)cc1)c1ncccc12 [Example 19]
(IV) O=C1c2c(-c3ccc(Cl)cc3)c3ncccc3n2CC2CCN12 (single isomer, unassigned) [Example 69]
(V) O=C1c2c(-c3ccc(Cl)c(F)c3)c3nccnc3n2CCN1C1CC1 [Example 8]
Ask | // rank the listed compounds by pIC50, lowest value first Show the ranking through the labels, in the order asked for.
Reply | III, IV, I, V, II
(III: 5.80, IV: 6.16, I: 6.45, V: 7.05, II: 8.04)
